RUN DESCRIPTION: chemical genetic growth profiling, strain panel (AID 1159580);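 note: tested at 20 µM; growth read once vehicle control cultures reached saturation at 30 °C; 1 = growth at the plate median or of vehicle wells; lower values mean less growth of the strain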
MEASUREMENT CONTEXT: S. cerevisiae deletion strains, growth OD, locus YHR087W, strain rtc3, stronger effect = lower value
Among all 5,500 compounds or so, about 2,000 (36%) were called active. Inconclusive results (about 18%) are left out. Some of the results follow.
PARAMETER: normalized growth
// return just the number, without any unit appended

Examples with answers:
BrC12CC3CC(CC(C3)C1)C2; 0.971
O=C1c2cccc3c(SCCO)ccc(c23)C(=O)N1CCc1ccccn1; 1
CCOC(=O)c1c(-c2ccc(F)cc2)csc1N; 0.858
O=C1CNC(=S)N1CCc1ccccn1; 0.992
COC(=O)c1ccc([N+](=O)[O-])cc1Cl; 1.01
O=C1NC(c2c(F)cccc2Cl)Nc2ccccc21 (configuration not stated); 1.02

## Task Entry `COC(=O)c1cc(OC)c(OC)cc1NS(=O)(=O)c1ccc(C)cc1` has what normalized growth?
## Result 1

----------
RUN DESCRIPTION: chemical genetic growth profiling, strain panel (AID 1159580);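 note: tested at 20 µM; growth read once vehicle control cultures reached saturation at 30 °C; 1 = growth at the plate median or of vehicle wells; lower values mean less growth of the strain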
MEASUREMENT CONTEXT: S. cerevisiae deletion strains, growth OD, locus YOR061W, strain CKA2, stronger effect = lower value
The campaign covered roughly 5,500 compounds. About 2,000 (36%) were called active. Roughly 18% stayed inconclusive and do not appear here. The list shows a part of the results.
In this section we review reported normalized growth values for a set of compounds.
// return just the number, without any unit appended

Examples with answers:
C[C@@]12C(=O)OC(=O)[C@]1(C)C1CCC2O1; 0.905
CC1CC2C(C(O)CC3(C)C2CCC3(O)C(=O)COC(=O)CCC(=O)O)C2(C)C=CC(=O)C=C12 (configuration not stated); 1
CC12CCCC(O)(C1)C1CC(C)(C)C1CC2 (configuration not stated); 1
CC1(C)CC2C1CCC1(C)OC1CCC2(C)O (configuration not stated); 1.02
CN1CCc2cccc3c2C1Cc1ccc(O)c(O)c1-3 (configuration not stated); 1.02

## Task Entry `CSc1c(C#N)c(-c2ccc(Cl)cc2)nn1C(=O)c1ccccc1Cl` has what normalized growth?
## Result 0.975

## Task Entry `COc1cc(C(=O)O)c(O)c2c1OCO2` has what normalized growth?
## Result 1.01

----------
RUN DESCRIPTION: chemical genetic growth profiling, strain panel (AID 1159580);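 note: tested at 20 µM; growth read once vehicle control cultures reached saturation at 30 °C; 1 = growth at the plate median or of vehicle wells; lower values mean less growth of the strain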
MEASUREMENT CONTEXT: S. cerevisiae deletion strains, growth OD, locus YDR388W, stronger effect = lower value
Among all 5,500 compounds or so, about 2,000 (36%) were called active. Inconclusive results (about 18%) are left out. This is one part of the list.
PARAMETER: normalized growth
// return just the number, without any unit appended

C/C=C/c1ccc(OC)cc1; 1

## Task Entry CC[C@@H](C(=O)[C@@H](C)[C@@H](O)[C@H](C)[C@@H]1O[C@@H]([C@@H](CC)C(=O)O)CC[C@@H]1C)[C@H]1OC2(C=C[C@@H](O)[C@]3(CC[C@@](C)([C@H]4CC[C@](O)(CC)[C@H](C)O4)O3)O2)[C@H](C)C[C@@H]1C (stereo partly specified) has what normalized growth?
## Result 0.668

## Task Entry `CCOc1ccc2c(c1)C(C)=CC(C)(C)N2` has what normalized growth?
## Result 0.984

## Task Entry `COc1ccc(/C=C/c2cc(O)cc(O)c2)cc1` has what normalized growth?
## Result 0.962

## Task Entry CC[C@@H](C(=O)O)[C@@H]1O[C@@H]([C@@H](C)[C@H](O)[C@H](C)C(=O)[C@H](CC)[C@H]2O[C@]3(C=C[C@@H](O)[C@]4(CC[C@@](C)(C5CC[C@](O)(CC)[C@H](C)O5)O4)O3)[C@H](C)C[C@@H]2C)[C@@H](C)C[C@H]1C (stereo partly specified) has what normalized growth?
## Result 0.117

## Task Entry `CCOC(N)=O` has what normalized growth?
## Result 1.01

## Task Entry `O=C(O)c1cc(O)c(O)c(O)c1` has what normalized growth?
## Result 1.02

## Task Entry `COc1ccc(/C=C/c2cc(O)cc(O[C@@H]3O[C@H](CO)[C@@H](O)[C@H](O)[C@H]3O)c2)cc1O` has what normalized growth?
## Result 1.01

## Task Entry `O=C(O)c1cc(=O)c(O)c2c(O)c(O)ccc2c1` has what normalized growth?
## Result 1.03

## Task Entry `COc1cc(C(=O)O)cc(OC)c1O` has what normalized growth?
## Result 0.978

## Task Entry `COc1cc(O)cc(/C=C/c2ccccc2)c1` has what normalized growth?
## Result 0.966
